target or system: Casein kinase II subunit alpha (Homo sapiens)
Sequence (P68400 whole entry): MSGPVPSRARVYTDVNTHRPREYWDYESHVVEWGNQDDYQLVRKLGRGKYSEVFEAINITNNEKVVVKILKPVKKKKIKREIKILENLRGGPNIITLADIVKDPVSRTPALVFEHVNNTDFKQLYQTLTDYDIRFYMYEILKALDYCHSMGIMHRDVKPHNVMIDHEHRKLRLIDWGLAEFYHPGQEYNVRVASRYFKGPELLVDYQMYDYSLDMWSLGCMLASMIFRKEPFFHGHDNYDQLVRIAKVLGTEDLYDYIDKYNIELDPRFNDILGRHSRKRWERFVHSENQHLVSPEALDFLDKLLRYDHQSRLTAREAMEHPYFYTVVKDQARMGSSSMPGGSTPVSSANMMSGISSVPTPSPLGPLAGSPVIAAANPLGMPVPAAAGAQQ
assay text: Inhibition of recombinant human GST-tagged CK2alpha in presence of ATP by radiometric kinase assay
endpoint: IC50

Below, each entry is followed by its recorded IC50 result.
[[record]]
sample_smiles = "c1ccc(Nc2nc(-c3ccc4ccccc4c3)cs2)cc1"
endpoint = "IC50"
obs_value = "> 50 µM"

[[record]]
sample_smiles = "O=C(O)Cc1ccc(Nc2nc(-c3cccc([N+](=O)[O-])c3)cs2)cc1"
endpoint = "IC50"
obs_value = "> 50 µM"

[[record]]
sample_smiles = "COC(=O)c1ccc(Nc2nc(-c3cccc([N+](=O)[O-])c3)cs2)cc1"
endpoint = "IC50"
obs_value = "> 25 µM"

[[record]]
sample_smiles = "N#Cc1ccc(Nc2nc(-c3ccc4ccccc4c3)cs2)cc1"
endpoint = "IC50"
obs_value = "> 50 µM"

[[record]]
sample_smiles = "O=[N+]([O-])c1cccc(-c2csc(Nc3ccccc3)n2)c1"
endpoint = "IC50"
obs_value = "> 25 µM"

[[record]]
sample_smiles = "O=C(O)c1ccc(Nc2nc(-c3ccc(O)cc3O)cs2)cc1"
endpoint = "IC50"
obs_value = "7 µM"


Attention now shifts to the item below.
[ask] Provide only the value of recorded IC50 for CC(C)(C)c1csc(Nc2ccc(C(=O)O)cc2)n1
[reply] > 50 µM
